I'd appreciate it if you could supply cell viability values for the items below.
- Tested on: Caco-2
- Method Summary: cell viability relative to DMSO; higher = less toxic
- Condition Set: 72 h; 100 nM
State just the number; it will be interpreted in %.

## Input Item: CC[C@H](C)[C@@H]1NC(=O)[C@H](Cc2ccc(O)cc2)NC(=O)[C@@H](N)CSSC[C@@H](C(=O)N2CCC[C@H]2C(=O)N[C@@H](CC(C)C)C(=O)NCC(N)=O)NC(=O)[C@H](CC(N)=O)NC(=O)[C@H](CCC(N)=O)NC1=O [oxytocin] Test system: Caco-2 Read-out: cell viability Value: ?
## Output 82.2

## Input Item: CC(=O)Oc1c(C)cc(OCC(O)CNC(C)C)c(C)c1C (stereo not drawn) [metipranolol] Test system: Caco-2 Read-out: cell viability Value: ?
## Output 102

## Input Item: O=C(O)CCc1cc(C(=O)c2ccc(OC3CCCC3)cc2O)ccc1OCc1ccc2c(O)noc2c1 [T-5224] Test system: Caco-2 Read-out: cell viability Value: ?
## Output 101

## Input Item: COc1ccc2ccc(=O)oc2c1CC=C(C)C [osthol] Test system: Caco-2 Read-out: cell viability Value: ?
## Output 94

## Input Item: CC(C)(C)NC[C@H](O)c1ccc(O)cc1Cl [meluadrine] Test system: Caco-2 Read-out: cell viability Value: ?
## Output 93.9

## Input Item: Cc1ccc(-c2ncn(-c3ccc(Nc4nccc(-c5cccc(N6CCOCC6)c5)n4)cc3)n2)cn1 [SR-3306] Test system: Caco-2 Read-out: cell viability Value: ?
## Output 95.9

## Input Item: CCN1CCN(Cc2ccc(Nc3ncc(F)c(-c4cc(F)c5nc(C)n(C(C)C)c5c4)n3)nc2)CC1 [abemaciclib] Test system: Caco-2 Read-out: cell viability Value: ?
## Output 90.7

## Input Item: CS(=O)(=O)N(Cc1ccco1)C[C@@H](O)Cn1c2ccccc2c2ccccc21 [KL-001] Test system: Caco-2 Read-out: cell viability Value: ?
## Output 102

* * *

- System: HepG2
- Method Summary: cell viability relative to DMSO; higher = less toxic
- Condition Set: 72 h; 1 nM
Metric Name: cell viability (%)
State just the number; it will be interpreted in %.

## Input Item: Nc1n[n+]([O-])c2ccccc2[n+]1[O-] Test system: HepG2 Read-out: cell viability Value: ?
## Output 92.3

## Input Item: CN1C(=O)C(N2CCCCC2)S/C1=C\C(=O)O (stereo not given) Test system: HepG2 Read-out: cell viability Value: ?
## Output 89.5

## Input Item: CCCN1CCC[C@@H]2Cc3nc(N)ncc3C[C@H]21 Test system: HepG2 Read-out: cell viability Value: ?
## Output 95.9

## Input Item: c1ccc(CCCCN2CCC(c3ccccc3)CC2)cc1 Test system: HepG2 Read-out: cell viability Value: ?
## Output 99.8

## Input Item: COc1ccccc1C(=O)Nc1cc2c(cc1N1CCCC1)n(C)c(=O)n2C Test system: HepG2 Read-out: cell viability Value: ?
## Output 92.7

* * *

- Tested on: Caco-2
- Method Summary: cell viability relative to DMSO; higher = less toxic
- Condition Set: 72 h; 100 nM
I'd appreciate it if you could supply cell viability values for the items below.
State just the number; it will be interpreted in %.

## Input Form field: reported cell viability of CN1C(=O)OC(C)(C)C1=O
## Output 114

## Input Form field: reported cell viability of CC(C)Cn1cnc2c1c(=O)n(C)c(=O)n2C
## Output 112

## Input Form field: reported cell viability of CCc1cc2c(cc1N1CCC(N3CCOCC3)CC1)C(C)(C)c1[nH]c3cc(C#N)ccc3c1C2=O
## Output 110

## Input Form field: reported cell viability of CO[C@H]1O[C@@H]2O[C@@]3(C)CC[C@H]4[C@H](C)CC[C@@H]([C@H]1C)[C@@]24OO3
## Output 97.3

## Input Form field: reported cell viability of CCCCCNC(=N)N/N=C/c1c[nH]c2ccc(OC)cc12
## Output 108

## Input Form field: reported cell viability of N#Cc1ccccc1OCC(O)CNCCNC(=O)Nc1ccccc1 (centres undefined)
## Output 91.4

## Input Form field: reported cell viability of CS(=O)(=O)c1ccc([C@@H](O)[C@@H](CF)NC(=O)C(Cl)Cl)cc1
## Output 107

## Input Form field: reported cell viability of O=C(NNC(=O)c1ccc(CNS(=O)(=O)c2ccc(F)c(Cl)c2)cc1)c1ccccc1
## Output 99.1

## Input Form field: reported cell viability of CCC(C(=O)O)c1ccc(CC(C)C)cc1 (centres undefined)
## Output 103
